From: a melting point compilation (Tetko et al.; mined from patent text by program, amines drawn as free bases though some values may be those of a salt)

melting point overview

- compound: "CN(CCO)S(=O)(=O)c1cc(NC(=O)c2cnn3c(C(F)F)cc(-c4ccc(C(F)(F)F)cc4)nc23)c(Cl)s1"
  melting point: "231 °C"
- compound: "Cn1ncc2c(c1=O)S(=O)(=O)CCNC2Cc1ccccc1 (stereo not given)"
  melting point: "288 to 290 °C"
- compound: "CC1(C(=O)N2CCN(S(=O)(=O)c3ccc(Br)cc3)CC2)CCN(c2ccncn2)CC1"
  melting point: "217 to 218 °C"
- compound: "CC(C)(C)c1cc(C(=O)Nc2ccc(N)cc2)cc(C(C)(C)C)c1O"
  melting point: "220 to 221 °C"

Value of measured melting point for the entry N#CN=[N+]([O-])c1ccc2c(c1)OCO2 : 145 to 147 °C

Value of measured melting point for the entry CC(C)C(C)CCC(C)C1CC(=O)C2=C3C(=O)CC4CC(OC(=O)c5ccccc5)CCC4(C)C3CCC21C (stereo not given) : 176 to 177 °C

Value of measured melting point for the entry O=C(NCCc1ccccc1F)c1c(Cl)ccc2nc(N3CCC(C(=O)O)CC3)ccc12 : 270 to 272 °C

Value of measured melting point for the entry O=C(O)c1ccc(C2OC23Cc2ccccc2C3=O)cc1 (stereo not given) : 220 °C

Value of measured melting point for the entry N#Cc1ccc(-c2ccc(Br)o2)cc1 : 94 to 94.5 °C

Value of measured melting point for the entry CC(C(=O)O)c1ccc2c(c1)CC(C)(C)C2 (stereo not given) : 180 to 183 °C

Value of measured melting point for the entry CC(=O)Nc1ccc(C2=NNC(=O)C2)cc1 : 254 to 258 °C

Value of measured melting point for the entry COc1cc(OC)c2c(c1)OCC(CNCCCOc1cccc(N)c1)O2 (stereo not given) : 123 to 128 °C

Value of measured melting point for the entry N#Cc1cc(NC(=O)c2ccccc2F)ccc1-n1nc(C(F)(F)F)cc1C(F)(F)F : 132 to 134 °C

Value of measured melting point for the entry N#CC(Cl)Cc1ccc(Cl)cc1C(=O)c1ccccc1F (stereo not given) : 94 to 95 °C

Value of measured melting point for the entry CCc1nc(-c2ncn3c4ccc(Cl)cc4c(=O)n(C)c23)no1 : 196 to 198 °C
